assay: Solubility of the drug; assay type: physicochemical; settings: MFD solution, fassgf or other biorelevant; read-out: solubility in MFD solution
Exercise: for every item that follows, state its recorded solubility.

# solubility of `Cc1ccc(-c2cc(C(F)(F)F)nn2-c2ccc(S(N)(=O)=O)cc2)cc1` = ~40 µg/mL

# solubility of `CC[C@@H]1C[C@H](N(Cc2cc(C(F)(F)F)cc(C(F)(F)F)c2)C(C)=O)c2cc(C(F)(F)F)ccc2N1C(=O)OC(C)C` = ~11 µg/mL
